Provenance of the data: ChEMBL document CHEMBL3112564

- Test system: Liver microsome
- EXPERIMENT: Half life in human liver microsomes at 1 uM by reversed phase LC/MS analysis
- Type: ADME
Quick rule for you: t1/2 under 30 min gets Fulfilled, anything else gets Not fulfilled.

Worked examples follow.
{"COMPOUND": "Cc1ccnc(NC(c2ccc([N+](=O)[O-])cc2)c2ccc3cccnc3c2O)c1 (centres undefined)", "LABEL_CLASS": "Fulfilled"}
{"COMPOUND": "Oc1c(Cl)cc(Cl)c2cccnc12", "LABEL_CLASS": "Not fulfilled"}
{"COMPOUND": "Oc1c(I)cc(Cl)c2cccnc12", "LABEL_CLASS": "Not fulfilled"}

t1/2 under 30 min? Item: Cc1ccnc(NC(c2ccc([N+](=O)[O-])cc2)c2ccc3ccc(C)nc3c2O)c1 (centres undefined) Not fulfilled

t1/2 under 30 min? Item: Oc1c(CNc2ccccn2)ccc2cccnc12 Fulfilled

t1/2 under 30 min? Item: COc1ccc(C(Nc2ccccn2)c2ccc3cccnc3c2O)cc1 (centres undefined) Fulfilled

t1/2 under 30 min? Item: COc1ccc(C(Nc2ccccn2)c2ccc3ccc(C)nc3c2O)cc1 (centres undefined) Fulfilled

t1/2 under 30 min? Item: Cc1ccc2c(Cl)cc(Cl)c(O)c2n1 Fulfilled

* * *

- System: Plasma
- EXPERIMENT: Metabolic stability in human plasma assessed as compound remaining at 1 uM measured at 3 hrs by LC-MS/MS analysis
- Format: ADME, cell-free
Decide using Stability: a value greater than or equal to 90% is T, a smaller one is F.

Worked examples follow.
{"MOLECULE": "Oc1c(I)cc(Cl)c2cccnc12", "LABEL_CLASS": "T"}
{"MOLECULE": "Oc1c(Cl)cc(Cl)c2cccnc12", "LABEL_CLASS": "T"}

Textbook exercise: given the entry Oc1c(CNc2ccccn2)ccc2cccnc12 , state whether its Stability is greater than or equal to 90%. T

Textbook exercise: given the entry COc1ccc(C(Nc2ccccn2)c2ccc3cccnc3c2O)cc1 (stereo not drawn) , state whether its Stability is greater than or equal to 90%. F

Textbook exercise: given the entry COc1ccc(C(Nc2ccccn2)c2ccc3ccc(C)nc3c2O)cc1 (stereo not drawn) , state whether its Stability is greater than or equal to 90%. F

* * *

- System: Plasma
- EXPERIMENT: Half life in Sprague-Dawley rat plasma at 1 uM by LC-MS/MS analysis
- Assay type: ADME, cell-free
Listed compounds paired with reported t1/2
The reply should be a number in h, with the unit left off.

Field: example entries. Status: answers known.
{"COMPOUND": "Cc1ccnc(NC(c2ccc([N+](=O)[O-])cc2)c2ccc3cccnc3c2O)c1 (stereo not drawn)", "EXPERIMENTAL_TARGET": "Plasma", "VALUE_OBSERVED": 51.1}
{"COMPOUND": "Cc1ccc2c(Cl)cc(Cl)c(O)c2n1 [CHLORQUINALDOL]", "EXPERIMENTAL_TARGET": "Plasma", "VALUE_OBSERVED": 115}

Which t1/2 value belongs to COc1ccc(C(Nc2ccccn2)c2ccc3cccnc3c2O)cc1 (stereo not drawn) ? 5

* * *

- Tested on: Plasma
- EXPERIMENT: Metabolic stability in Sprague-Dawley rat plasma assessed as compound remaining at 1 uM measured at 3 hrs by LC-MS/MS analysis
- Assay type: ADME, cell-free
MEASURED_ATTRIBUTE: Stability (%)
The reply should be a number in %, with the unit left off.

Field: example entries. Status: answers known.
{"COMPOUND": "Oc1c(CNc2ccccn2)ccc2cccnc12", "Stability (%)": 76.3}
{"COMPOUND": "Cc1ccc2c(Cl)cc(Cl)c(O)c2n1", "Stability (%)": 96.9}
{"COMPOUND": "Oc1c(C(Nc2ccccn2)c2ccccc2)ccc2cccnc12 (centres undefined)", "Stability (%)": 67.3}
{"COMPOUND": "COc1ccc(C(Nc2ccccn2)c2ccc3cccnc3c2O)cc1 (centres undefined)", "Stability (%)": 42.2}
{"COMPOUND": "COc1ccc(C(Nc2ccccn2)c2ccc3ccc(C)nc3c2O)cc1 (centres undefined)", "Stability (%)": 86.6}
{"COMPOUND": "Cc1ccnc(NC(c2ccc([N+](=O)[O-])cc2)c2ccc3cccnc3c2O)c1 (centres undefined)", "Stability (%)": 100}

Which Stability value belongs to Oc1c(I)cc(Cl)c2cccnc12 ? 83.9

Which Stability value belongs to Oc1c(Cl)cc(Cl)c2cccnc12 ? 100

Which Stability value belongs to Cc1ccnc(NC(c2ccc([N+](=O)[O-])cc2)c2ccc3ccc(C)nc3c2O)c1 (centres undefined) ? 98.5
